B1: library; the commonest letter at each place (parent)
chain: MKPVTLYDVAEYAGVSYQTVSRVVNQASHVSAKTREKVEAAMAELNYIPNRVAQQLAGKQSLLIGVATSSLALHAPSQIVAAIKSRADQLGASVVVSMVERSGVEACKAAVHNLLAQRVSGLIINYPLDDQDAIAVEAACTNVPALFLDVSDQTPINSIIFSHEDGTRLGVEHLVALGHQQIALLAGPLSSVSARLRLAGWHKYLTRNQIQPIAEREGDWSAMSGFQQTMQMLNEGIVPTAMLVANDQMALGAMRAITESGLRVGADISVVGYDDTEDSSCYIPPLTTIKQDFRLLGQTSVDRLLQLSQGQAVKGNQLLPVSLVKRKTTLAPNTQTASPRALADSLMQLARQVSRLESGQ

Variants of: B1
Assay remarks: basal output G0 (YFP, no IPTG) (log10 MEF); higher = higher reporter expression without inducer
Condition context: with IPTG
Measured endpoint: basal output G0 (log10)
One number for each entry.

Please state, for each entry, its recorded basal output G0 (log10).
1. A72V A110V N142D S322L
2. K2R A92V R195P D278G
3. V99E A116T T141I S190C
4. D88Y A241V N246S L305M L319F P339T A341T L346S
5. L62M A109V D149E M242V P285S Q317R

Response given:
[3.78, 3.09, 3.53, 4.46, 2.56]

// for each variant in input: emit basal output G0 (log10)
1. K203N D278V S280L I283V
2. E44D R101G R303S R355L

Response given:
1: 3.19; 2: 2.44

I'm hoping you can list basal output G0 (log10) for every variant here, please.
1. S190C
2. I83M
3. V96E T154I S158R V238D M254I V264I
4. I160F L185F

Response given:
1. 2.31
2. 1.45
3. 4.48
4. 2.08
